Reference source for all entries: ChEMBL document CHEMBL1157124

Test system: NCI-H460
Test: Cytotoxicity against human NCI-H460 cells assessed as growth inhibition at 0.1 ug/ml after 24 hrs by MTT assay
Format: functional
Settings: NCI-H460, 24 h, read-out: GI
ASSAY METRIC: inhibition of growth at 0.1 µg/mL (%)
One number for each entry, in %.

For every record below, what is its inhibition of growth at 0.1 µg/mL?
1. O=C(O)CCCC[C@@H](S)CCS [DIHYDROLIPOIC ACID]
2. O=C(CCCCC(CCSC(=O)c1ccccc1)SC(=O)c1ccccc1)Nc1ccccc1 (stereo unspecified)
3. O=C(CCCCC(S)CCS)Nc1ccc(Br)cn1 (stereo unspecified)
4. Cc1cccc(NC(=O)CCCCC2CCSS2)c1 (stereo unspecified)

9.25
0.6
6.4
7.97

For every record below, what is its inhibition of growth at 0.1 µg/mL?
1. O=C(CCCCC(S)CCS)Nc1ccc([N+](=O)[O-])c(C(F)(F)F)c1 (stereo unspecified)
2. O=C(CCCCC1CCSS1)Nc1ccccc1 (stereo unspecified)

3.2
9.48

====

System: Bel-7402
Test: Cytotoxicity against human Bel7402 cells assessed as growth inhibition at 10 ug/ml after 24 hrs by MTT assay
Format: functional
Settings: Bel-7402, 24 h, read-out: GI
Everything with inhibition of growth at 10 µg/mL lower than 3% is not met; everything else, including exactly 3%, is met.

Say whether O=C(CCCCC(S)CCS)Nc1cccc(C(F)(F)F)c1 (stereo unspecified) shows inhibition of growth at 10 µg/mL of 3% or more. not met

Say whether O=C(O)CCCCC(CCSC(=O)c1ccccc1)SC(=O)c1ccccc1 (stereo unspecified) shows inhibition of growth at 10 µg/mL of 3% or more. not met

====

Assay: Cytotoxicity against human HO8910 cells assessed as growth inhibition at 1 ug/ml after 24 hrs by MTT assay
Assay type: functional
Details: HO-8910, 24 h, read-out: GI
ASSAY METRIC: inhibition of growth at 1 µg/mL (%)
Give bare numbers, in %.

In the examples that follow, each entry is paired with its recorded inhibition of growth at 1 µg/mL.
* COc1ccc(NC(=O)CCCCC(S)CCS)cc1 (configuration not stated) | 1.79
* O=C(CCCCC(S)CCS)Nc1ccccc1 (configuration not stated) | 6.38
* O=C(CCCCC1CCSS1)Nc1cccc2ccccc12 (configuration not stated) | 6.95
* O=C(CCCCC(S)CCS)Nc1ccc(Br)cn1 (configuration not stated) | 2.51
* O=C(CCCCC(S)CCS)Nc1ccc([N+](=O)[O-])cc1 (configuration not stated) | 0.76

For every record below, what is its inhibition of growth at 1 µg/mL?
1. O=C(CCCCC1CCSS1)Nc1ccc(Cl)cn1 (configuration not stated)
2. O=C(CCCCC(S)CCS)Nc1ccc([N+](=O)[O-])c(C(F)(F)F)c1 (configuration not stated)

1: 2.1; 2: 1.17

====

Assign inhibition of growth at 0.1 µg/mL to each entry below.
System: KB
Test: Cytotoxicity against human KB cells assessed as growth inhibition at 0.1 ug/ml after 24 hrs by MTT assay
Format: functional
Conditions: read-out: GI
Answers are plain numbers, in %.

In the examples that follow, each entry is paired with its recorded inhibition of growth at 0.1 µg/mL.
• O=C(CCCCC1CCSS1)Nc1ccc(Cl)cc1 (stereo unspecified) = 16.4
• O=C(CCCCC(CCSC(=O)c1ccccc1)SC(=O)c1ccccc1)Nc1ccc(Cl)cc1 (stereo unspecified) = 16.9
• O=C(CCCCC(S)CCS)Nc1ccccc1 (stereo unspecified) = 9.49
• O=C(CCCCC1CCSS1)NO (stereo unspecified) = 7.92

For every record below, what is its inhibition of growth at 0.1 µg/mL?
1. O=C(O)CCCC[C@@H](S)CCS [DIHYDROLIPOIC ACID]
2. O=C(CCCCC1CCSS1)Nc1ccc([N+](=O)[O-])cc1 (stereo unspecified)

1. 12
2. 0.22

====

System: HT-29
Assay: Induction of apoptosis in human HT-29 cells
Type: functional, cell-based
Assign EC50 to each entry below.
Answers are plain numbers, in µM.

- O=C(O)CCCC[C@@H](S)CCS [DIHYDROLIPOIC ACID]: 250

// next item, EC50 requested
Name the recorded EC50 of the item O=C(O)CCCCC1CCSS1 (stereo not drawn) [LIPOIC ACID, ALPHA] in your answer. 250

====

Assay: Cytotoxicity against human HO8910 cells assessed as growth inhibition at 1 ug/ml after 24 hrs by MTT assay
Type: functional
Conditions: HO-8910, 24 h, read-out: GI
Everything with inhibition of growth at 1 µg/mL lower than 5% is 0; everything else, including exactly 5%, is 1.

• O=C(CCCCC(S)CCS)Nc1ccc(Cl)cc1 (stereo not given) = 0
• O=C(CCCCC(CCSC(=O)c1ccccc1)SC(=O)c1ccccc1)Nc1ccc(Cl)cc1 (stereo not given) = 0

Say whether O=C(CCCCC1CCSS1)Nc1ccc(OC(F)(F)F)cc1 (stereo not given) shows inhibition of growth at 1 µg/mL of 5% or more. 1

Say whether O=C(O)CCCCC(CCSC(=O)c1ccccc1)SC(=O)c1ccccc1 (stereo not given) shows inhibition of growth at 1 µg/mL of 5% or more. 0

Say whether O=C(CCCCC1CCSS1)Nc1cccc(C(F)(F)F)c1 (stereo not given) shows inhibition of growth at 1 µg/mL of 5% or more. 0

Say whether O=C(CCCCC1CCSS1)Nc1ccc([N+](=O)[O-])c(C(F)(F)F)c1 (stereo not given) shows inhibition of growth at 1 µg/mL of 5% or more. 0

Say whether Cc1cccc(NC(=O)CCCCC(S)CCS)c1 (stereo not given) shows inhibition of growth at 1 µg/mL of 5% or more. 0

====

Tested on: NCI-H460
Experiment: Cytotoxicity against human NCI-H460 cells assessed as growth inhibition at 0.1 ug/ml after 24 hrs by MTT assay
Type: functional
Conditions: NCI-H460, 24 h, read-out: GI
Assign inhibition of growth at 0.1 µg/mL to each entry below.
Answers are plain numbers, in %.

In the examples that follow, each entry is paired with its recorded inhibition of growth at 0.1 µg/mL.
- O=C(CCCCC(CCSC(=O)c1ccccc1)SC(=O)c1ccccc1)Nc1ccc(Cl)cc1 (stereo unspecified): 9.36
- O=C(CCCCC1CCSS1)Nc1cccc2ccccc12 (stereo unspecified): 2.36
- O=C(CCCCC(CCSC(=O)c1ccccc1)SC(=O)c1ccccc1)Nc1ccccc1Cl (stereo unspecified): 15.1
- O=C(O)CCCCC1CCSS1 (stereo unspecified): 8.71

For every record below, what is its inhibition of growth at 0.1 µg/mL?
1. CC(=O)SCCC(CCCCC(=O)O)SC(C)=O (stereo unspecified)
2. O=C(CCCCC1CCSS1)Nc1ccccc1Cl (stereo unspecified)
3. O=C(CCCCC1CCSS1)Nc1ccc(Cl)cn1 (stereo unspecified)
4. O=C(CCCCC1CCSS1)Nc1cccc(Cl)c1 (stereo unspecified)
5. Cc1cccc(NC(=O)CCCCC(S)CCS)c1 (stereo unspecified)
6. O=C(CCCCC(S)CCS)Nc1cccc(C(F)(F)F)c1 (stereo unspecified)
7. CC(=O)SCCC(CCCCC(=O)Nc1ccccc1Cl)SC(C)=O (stereo unspecified)
8. O=C(CCCCC(CCSC(=O)c1ccccc1)SC(=O)c1ccccc1)Nc1cccc(Cl)c1 (stereo unspecified)

9.96
8
3.93
6.08
9.34
11.9
16.6
15.6

====

Experiment: Toxicity in rat
Type: organism-based
Conditions: in vivo
ASSAY METRIC: LD50 (mg/kg)
Numbers only, in mg/kg.

Name the recorded LD50 of the item O=C(O)CCCCC1CCSS1 (stereo unspecified) in your answer. 2000

====

Experiment: Acute toxicity in ICR mouse
Type: organism-based
Conditions: in vivo
ASSAY METRIC: LD50 (mg/kg)
Numbers only, in mg/kg.

Name the recorded LD50 of the item O=C(CCCCC1CCSS1)Nc1ccc(Cl)cn1 (stereo unspecified) in your answer. 1000

====

Tested on: NCI-H460
Experiment: Cytotoxicity against human NCI-H460 cells assessed as growth inhibition at 0.1 ug/ml after 24 hrs by MTT assay
Assay type: functional
Conditions: NCI-H460, 24 h, read-out: GI
ASSAY METRIC: inhibition of growth at 0.1 µg/mL (%)
Give bare numbers, in %.

In the examples that follow, each entry is paired with its recorded inhibition of growth at 0.1 µg/mL.
* O=C(CCCCC1CCSS1)Nc1ccc(F)cc1 (stereo unspecified) | 15.6
* COc1ccc(NC(=O)CCCCC2CCSS2)cc1 (stereo unspecified) | 3.82
* O=C(CCCCC(S)CCS)Nc1ccc(F)cc1 (stereo unspecified) | 5.64
* O=C(CCCCC(S)CCS)Nc1ccc([N+](=O)[O-])cc1 (stereo unspecified) | 5.69
* O=C(CCCCC(S)CCS)Nc1ccc(OC(F)(F)F)cc1 (stereo unspecified) | 17.2

// next item, inhibition of growth at 0.1 µg/mL requested
Name the recorded inhibition of growth at 0.1 µg/mL of the item O=C(CCCCC1CCSS1)Nc1ccc(OC(F)(F)F)cc1 (stereo unspecified) in your answer. 7.05
